value.kind: melting point (°C)

I: c1ccc(COc2ccc(OCC3CO3)cc2)cc1 (stereo not given)
II: S=c1c(Br)coc2ccccc12
(Q) Select the item with the higher value of melting point from the options I and II listed. Reply briefly: the label of your chosen item.
(A) I

---

melting point values by entry

Some solved cases for reference:
| compound | melting point |
| --- | --- |
| CCOC(=O)C(=O)Nc1c([N+](=O)[O-])sc2cc(OC)ccc12 | 195 to 196 °C |
| CCOC(=O)c1ccc(NC(C)c2ccccc2)cc1 (centres undefined) | 88 °C |

(Q) Return reported melting point; argument: Cc1ccccc1[PH](=O)c1ccccc1C
(A) 91.3 °C

(Q) Entry to check: COC(=O)c1ccccc1S(=O)(=O)N1CCC[C@H]1C(=O)N[C@@H](Cc1ccccc1)C(=O)O
(A) 163 to 165 °C

(Q) Entry to check: CNc1ccc2[nH]ccc2c1
(A) 113 to 114 °C

(Q) Entry to check: CCCN(CC)c1cc(C)nc(Oc2c(C)cc(C)cc2C)c1C
(A) 167 to 169 °C

(Q) Entry to check: CC(C)c1ccc(-n2nc(C(C)(C)C)cc2NC(=O)c2cncc3cc(Oc4cc(N)ncn4)ccc23)cc1
(A) 131 to 133 °C
